Kindly supply the reported Activity values for the records listed here.
Molecular target: Kappa-type opioid receptor (Homo sapiens)
Assay: Displacement of [3H]dynorphin from human kappa opioid receptor expressed in C6 giloma cells measured total binding per mg of protein at 5 uM
Assay type: cell-based
One number for each entry, in %.

For orientation, consider the following solved cases.
O=C(CCCl)Nc1ccccc1 = 59
Cc1cc(NC(=O)C(Cl)Cl)c2ccccc2n1 = 77
Cc1cc(N(CC(=O)NC2CCCCC2)CC(=O)NC2CCCCC2)c2ccccc2n1 = 114
Cc1cc(NCC(=O)Nc2cc(Cl)ccc2Cl)c2ccccc2n1 = 74
Cc1cc(NCC(=O)Nc2ccccc2)c2ccccc2n1 = 38
Cc1ccc(NC(=O)CNc2cc(C)nc3ccccc23)cc1 = 90

Quick request: Activity for each listed item, please.
1. Cc1cc(N)c2ccccc2n1
2. Cc1cc(NCC(=O)Nc2ccccc2Cl)c2ccccc2n1
3. Cc1ccc(C(=O)Nc2cc(C)nc3ccccc23)cc1
4. COc1ccc(NC(=O)CNc2cc(C)nc3ccccc23)cc1
5. Cc1ccc(NC(=O)CCNc2cc(C)nc3ccccc23)cc1

1. 71
2. 52
3. 58
4. 44
5. 56

----------
Kindly supply the reported Activity values for the records listed here.
Molecular target: UniProtKB P33535
Sequence (P33535 whole entry): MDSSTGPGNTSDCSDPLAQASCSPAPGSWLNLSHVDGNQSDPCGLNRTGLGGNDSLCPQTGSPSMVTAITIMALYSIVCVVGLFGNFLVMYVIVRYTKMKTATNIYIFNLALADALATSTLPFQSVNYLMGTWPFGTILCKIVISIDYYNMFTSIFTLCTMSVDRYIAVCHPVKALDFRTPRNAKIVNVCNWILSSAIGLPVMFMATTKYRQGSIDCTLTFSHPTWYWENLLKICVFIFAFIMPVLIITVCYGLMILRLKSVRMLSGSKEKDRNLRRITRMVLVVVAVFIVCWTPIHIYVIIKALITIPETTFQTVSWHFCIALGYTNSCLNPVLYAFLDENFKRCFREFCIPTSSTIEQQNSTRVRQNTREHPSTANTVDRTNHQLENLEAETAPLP
Experiment: Displacement of [3H]DAMGO from mu opioid receptor in rat brain measured total binding per mg of protein at 5 uM
Format: tissue-based
Number plus unit, in that order.

For orientation, consider the following solved cases.
Cc1cc(N)c2ccccc2n1 = 95%
O=C(CCCl)Nc1ccccc1 = 61%
Cc1ccc(NC(=O)CNc2cc(C)nc3ccccc23)cc1 = 47%
Cc1ccc(NC(=O)CCNc2cc(C)nc3ccccc23)cc1 = 23%
Cc1cc(NC(=O)C(Cl)Cl)c2ccccc2n1 = 106%

Quick request: Activity for each listed item, please.
1. COc1ccc(NC(=O)CNc2cc(C)nc3ccccc23)cc1
2. Cc1cc(NCC(=O)Nc2ccccc2)c2ccccc2n1

1: 27%; 2: 30%

Reference source for all entries: ChEMBL document CHEMBL1152513
